Sourced from paper PMC3897377

target: T1, ID1–ID2a minimal CSA-binding region of VAR2CSA, baculovirus-produced (Plasmodium falciparum FCR3, UniProt Q6UDW7, strain); test: ELISA; recombinant VAR2CSA protein or domain (50 nM in PBS) coated on MaxiSorp plates overnight at 4°C; Nb 50 nM in 1% skim milk in PBS, 90 min RT; detected with rabbit anti-camel and HRP anti-rabbit, OD 490 nm after 20 min; details: both partners purified
T1 construct: VAR2CSA, P. falciparum FCR3; ID1–ID2a region encompassing DBL2X with the flanking parts ID1 and ID2; also called ID1–ID2a (BV); source: baculovirus expression system, as described in [11], [20]
attributeMeasured: binding result

Recorded results for 4 binders are shown here.
binder	observedMeasurement
Nb09 (VHH, from an alpaca immunized with full-length VAR2CSA; pHEN6c vector; also called Nanobody 09; VHH; source: E. coli WK6, periplasmic extract, purified (HisTrap); not shown: His6, C-terminal, kept) VHH: QVQLQESGGGLVQAGGSLRLSCAASGRTFSNYGMGWFRQTPEKERDLLAAVTWSGGRTYYADSVKGRFTISRDNAKNTVYLQMNSLKPEDTAVYYCAAGELFYSDYGPEGEWDYWGQGTQVTVSS	binds
Nb07 (VHH, from an alpaca immunized with full-length VAR2CSA; pHEN6c vector; also called Nanobody 07; VHH; source: E. coli WK6, periplasmic extract, purified (HisTrap); not shown: His6, C-terminal, kept) VHH: QVQLQESGGGLVQAGGSLRLSCAASGFTFDDYVIGWFRQAPGKEREGVSCISRSDGSTYYADSVKGRFTISSDNAKNTIYLQMNSLKPEDTAVYHCAAAMTHFGLGPGPNEYDYWGQGTQVTVSS	binds
Nb12 (VHH, from an alpaca immunized with full-length VAR2CSA; pHEN6c vector; also called Nanobody 12; VHH; source: E. coli WK6, periplasmic extract, purified (HisTrap); not shown: His6, C-terminal, kept) VHH: QVQLQESGGGLVQVGGSLRLSCAASGRTFSNYAMGWFRQAPGEEREFVAAISWSDNNTLYTDSVKGRFTISRDNAENTVYLQMNSLEPEDTAVYYCAAGRRPRLRVGLNEFDYWGQGTQVTVSS	binds
Nb01 (VHH, from an alpaca immunized with full-length VAR2CSA; pHEN6c vector; also called Nanobody 01; VHH; source: E. coli WK6, periplasmic extract, purified (HisTrap); not shown: His6, C-terminal, kept) VHH: QVQLQESGGGLVQAGGSLRLSCAASGRTFNSYVMGWFRQAPGKEREFVAAISWSGGNAYYADSVKGRFTISRDNAENTVYLLMNSLKPEDTAVYYCAAALTRLARNEYDYLGQGTQVTVSS	binds

# evaluate next
q: Item Nb10 (VHH, from an alpaca immunized with full-length VAR2CSA; pHEN6c vector; also called Nanobody 10; VHH; source: E. coli WK6, periplasmic extract, purified (HisTrap); not shown: His6, C-terminal, kept) VHH: QVQLQESGGGLVQAGGSLRLSCAASGRTFSSNLMGWLRQAPGKEREFVAAMSMSGGDTFYADSVKGRFTISRDNAKNMVHLQMNSLKPEDTAIYYCAAADVRLSAYEYDYWGQGTQVTVSS has what recorded binding result?
a: binds
